# target-or-system: Carboxy-terminal domain RNA polymerase II polypeptide A small phosphatase 1 (Homo sapiens, UniProt Q9GZU7)
# Sequence (Q9GZU7 whole entry, the tested form may be a part): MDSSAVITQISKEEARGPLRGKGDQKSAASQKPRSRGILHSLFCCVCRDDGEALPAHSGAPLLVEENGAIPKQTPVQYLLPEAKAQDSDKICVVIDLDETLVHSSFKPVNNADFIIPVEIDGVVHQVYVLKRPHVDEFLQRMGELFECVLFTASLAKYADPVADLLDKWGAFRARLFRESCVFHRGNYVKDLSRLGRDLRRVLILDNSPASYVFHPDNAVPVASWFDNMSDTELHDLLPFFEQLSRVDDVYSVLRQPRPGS
Note to self: class labels come from recorded IC50, ranges listed here: label 0: < 4 µM; label 1: ≥ 4 µM and < 6 µM; label 2: ≥ 6 µM

>  <molecule>
C=CC1=C(C(=O)O)N2C(=O)[C@@H](NC(=O)C(N=O)c3csc(N)n3)[C@H]2SC1 (stereo not given in full)

>  <assigned-category>
label 1

$$$$
>  <molecule>
CCOc1ccccc1/N=C1\SCCCN1C

>  <assigned-category>
label 2

$$$$
>  <molecule>
COc1ccc(CN=Nc2ncc(Br)cn2)c(OC)c1

>  <assigned-category>
label 2

$$$$
>  <molecule>
Cc1ccc(-c2csc(-c3c(O)cn(NC(=O)c4ccco4)c3N)n2)cc1

>  <assigned-category>
label 2

$$$$
>  <molecule>
CCCCCn1cc(O)c(-c2nc(-c3ccc(Cl)cc3)cs2)c1N

>  <assigned-category>
label 1

$$$$
>  <molecule>
Cc1ccc(-c2csc(-n3[nH]c(C)c(N=Nc4ccccc4O)c3=O)n2)cc1

>  <assigned-category>
label 0

$$$$
>  <molecule>
O=[N+]([O-])c1cccc(-c2csc(N=NCc3cccc(O)c3)n2)c1

>  <assigned-category>
label 2

$$$$
>  <molecule>
CC1=CC(=NNC(=O)c2ccccc2O)c2ccccc2C1=O

>  <assigned-category>
label 1

$$$$
>  <molecule>
Cc1cc(C)n2c(SCC(=O)C(C#N)c3nc4ccccc4[nH]3)nnc2n1 (stereo not given)

>  <assigned-category>
label 1

$$$$
>  <molecule>
O=C(O)c1cccc(-n2c(O)c3c(c2O)CC(Cl)=CC3)c1

>  <assigned-category>
label 2

$$$$
>  <molecule>
O=C1C=CC(/C=C/c2nc(O)c([N+](=O)[O-])c(=O)[nH]2)C=C1O (stereo not given)

>  <assigned-category>
label 2

$$$$
>  <molecule>
COc1ccc(N/C(C)=[N+](\C)CCNS(=O)(=O)c2ccc(Cl)cc2)cc1

>  <assigned-category>
label 0

$$$$
>  <molecule>
C=CCOc1ccc(CN=Nc2ccc(S(=O)(=O)Nc3ccccc3C(=O)O)cc2[N+](=O)[O-])cc1OC

>  <assigned-category>
label 0

$$$$
>  <molecule>
CCOc1cc(CN=Nc2nc(O)c(CC(=O)O)s2)ccc1OCc1ccc(Cl)cc1Cl

>  <assigned-category>
label 0

$$$$
>  <molecule>
O=C1Nc2ccc([N+](=O)[O-])cc2/C1=N/NC(=O)c1cc(-c2ccccc2Cl)nc2ccccc12

>  <assigned-category>
label 0

$$$$
>  <molecule>
O=NCc1cccn1-c1cccc(C(=O)O)c1

>  <assigned-category>
label 0

$$$$
>  <molecule>
CC(N=Nc1ccc(Cl)c(C(=O)O)c1)c1ccc[nH]1 (stereo not given)

>  <assigned-category>
label 1

$$$$
>  <molecule>
O=C(O)Cc1sc(N=NCc2ccccc2)nc1-c1ccccc1

>  <assigned-category>
label 1

$$$$

###

# target-or-system: Carboxy-terminal domain RNA polymerase II polypeptide A small phosphatase 1 (Homo sapiens, UniProt Q9GZU7)
# measurement-description: Ultra-high-throughput screening actives, CTDSP1 enzyme inhibition, concentration-response testing, biochemical, absorbance detection (AID 540297)
Criterion: IC50 strictly less than 4 µM. Met: T. Not met: F.

>  <molecule>
CC(=NNC(=O)c1cccc(N=NC(C)c2ccco2)c1)c1ccco1 (stereo not given)

>  <assigned-category>
T

$$$$
>  <molecule>
O=C1CC(=O)c2cccc(O)c2C1=O [4,8-dihydroxynaphthalene-1,2-dione]

>  <assigned-category>
F

$$$$
>  <molecule>
O=C(CCCC(=O)Nc1cccc(Br)c1)N/N=C/C1C=C([N+](=O)[O-])C=CC1=O (stereo not given)

>  <assigned-category>
F

$$$$
>  <molecule>
O=C(NN=C/C=C/c1ccc(Br)cc1)c1ccc2c(c1)OCO2

>  <assigned-category>
F

$$$$
>  <molecule>
CSc1nnc(C)c(CC=Nc2ccc(F)cc2F)n1

>  <assigned-category>
F

$$$$
>  <molecule>
N#CC1=c2sc(=Cc3ccco3)c(=O)n2C(=N)C(C#N)C1c1ccco1 (stereo not given)

>  <assigned-category>
T

$$$$
>  <molecule>
O=C1C=C(O)/C(=C/NN2C(=O)C3C(C2=O)C2C=CC3C23CC3)C=C1[N+](=O)[O-] (stereo not given)

>  <assigned-category>
F

$$$$
>  <molecule>
Cc1ccc(C(=O)NN=C/C=C/c2ccc(Br)cc2)cn1

>  <assigned-category>
F

$$$$
>  <molecule>
COc1cccc(N/C(C)=[N+](\C)CCNS(=O)(=O)c2ccc(Cl)cc2)c1

>  <assigned-category>
T

$$$$
>  <molecule>
CCOc1ccccc1C(=O)c1cc(O)c2ccccc2c1O

>  <assigned-category>
F

$$$$
>  <molecule>
O=C(NN=C/C=C/c1ccccc1)c1cc2c(ccc3ccccc32)o1

>  <assigned-category>
T

$$$$
>  <molecule>
COc1ccc(CN=Nc2nc(O)c(CC(=O)O)s2)cc1OCc1ccc(Cl)cc1Cl

>  <assigned-category>
F

$$$$
>  <molecule>
CCOc1cc(CN=Nc2nc(O)c(CC(=O)O)s2)ccc1OCc1ccc(Cl)cc1

>  <assigned-category>
F

$$$$
>  <molecule>
COC(=O)C1C(COc2ccccc2)=NC(=O)NC1c1ccc2ccccc2c1 (stereo not given)

>  <assigned-category>
F

$$$$
>  <molecule>
CCOc1cc(CN=Nc2nc(O)c(CC(=O)O)s2)ccc1OCc1ccccc1Cl

>  <assigned-category>
F

$$$$
>  <molecule>
COc1ccccc1N/C(C)=[N+](\C)CCNS(=O)(=O)c1ccc(Cl)cc1

>  <assigned-category>
T

$$$$
>  <molecule>
C=c1[nH]c(=Cc2ccc(CNC(=O)C(=O)Nc3ccccc3)o2)c(O)c1C(=O)OCC

>  <assigned-category>
F

$$$$
>  <molecule>
Cc1cccc(C(=O)/N=c2\c(C#N)cc3c(=O)n4cccc(C)c4nc3n2Cc2ccco2)c1

>  <assigned-category>
F

$$$$
>  <molecule>
CCN(CC)P(=O)(NC(=O)C(Cl)(Cl)Cl)N(CC)CC

>  <assigned-category>
T

$$$$
